Here, each record is paired with measured CC50 at 48 h data.
protocolDescription: Cytotoxicity against human HEK293 cells assessed as reduction in cell viability after 48 hrs by Alamar blue assay
Assay type: cell-based

Guide cases for CC50 at 48 h, answers given:
1) O=S(=O)(Nc1ccc(-c2nc3ccccc3o2)cc1)c1ccc(Cl)s1
> 100 µM
2) CCc1ccc(S(=O)(=O)Nc2ccc(-c3nc4ccccc4o3)cc2)cc1
82 µM
3) O=S(=O)(Nc1ccc2oc(-c3ccccc3)nc2c1)c1ccc(C(F)(F)F)cc1
74 µM
4) O=S(=O)(Nc1ccc2oc(-c3ccccc3)nc2c1)c1ccccc1C(F)(F)F
80 µM
5) O=S(=O)(Nc1ccc(-c2nc3ccccc3o2)cc1)c1cccc(Cl)c1
> 100 µM
6) O=S(=O)(Nc1ccc(-c2nc3ccccc3o2)cc1)c1ccc(Cl)c(Cl)c1
> 100 µM
7) O=S(=O)(Nc1ccc(-c2nc3ccccc3o2)cc1)c1cccs1
> 100 µM
8) O=S(=O)(Nc1ccc2oc(-c3ccccc3)nc2c1)c1ccc(F)c(C(F)(F)F)c1
> 100 µM

Now examine the next entry.
-- ask Answer with reported CC50 at 48 h of O=S(=O)(Nc1ccc2oc(-c3ccccc3)nc2c1)c1cccc(O)c1
-- reply > 100 µM
